Measured weight change (isothermal sorption plot) values are reported for all entries that follow.
- protocol: Dynamic vapor sorption / isothermal sorption (hygroscopicity)
- Type: physicochemical
- experimental-setup: between 0 to 80% RH

Ask: Which value of weight change (isothermal sorption plot) has been reported for CN1CCC(C(=O)c2cccc(NC(=O)c3c(F)cc(F)cc3F)n2)CC1 [Lasmiditan Form 1] in the records?
Reply: 0.1%

Ask: Which weight change (isothermal sorption plot) is reported for this compound? CN1CCC(C(=O)c2cccc(NC(=O)c3c(F)cc(F)cc3F)n2)CC1 [Lasmiditan amorphous form, reference compound]
Reply: 9.5%

Ask: Which weight change (isothermal sorption plot) value belongs to CN1CCC(C(=O)c2cccc(NC(=O)c3c(F)cc(F)cc3F)n2)CC1 [Lasmiditan Form 3] ?
Reply: 0.7%

Ask: What measured weight change (isothermal sorption plot) goes with CN1CCC(C(=O)c2cccc(NC(=O)c3c(F)cc(F)cc3F)n2)CC1 [Lasmiditan Form 2] ?
Reply: 0.1%
